Below, each entry is listed alongside its reported pIC50.
molecular target: P70S6K (T412E mutant) (Homo sapiens (Human), UniProt P23443, T412E); assay: P70S6K enzyme assay; type: biochemical; conditions: read-out: IC50 p70S6K
Sequence (P23443 whole entry T412E): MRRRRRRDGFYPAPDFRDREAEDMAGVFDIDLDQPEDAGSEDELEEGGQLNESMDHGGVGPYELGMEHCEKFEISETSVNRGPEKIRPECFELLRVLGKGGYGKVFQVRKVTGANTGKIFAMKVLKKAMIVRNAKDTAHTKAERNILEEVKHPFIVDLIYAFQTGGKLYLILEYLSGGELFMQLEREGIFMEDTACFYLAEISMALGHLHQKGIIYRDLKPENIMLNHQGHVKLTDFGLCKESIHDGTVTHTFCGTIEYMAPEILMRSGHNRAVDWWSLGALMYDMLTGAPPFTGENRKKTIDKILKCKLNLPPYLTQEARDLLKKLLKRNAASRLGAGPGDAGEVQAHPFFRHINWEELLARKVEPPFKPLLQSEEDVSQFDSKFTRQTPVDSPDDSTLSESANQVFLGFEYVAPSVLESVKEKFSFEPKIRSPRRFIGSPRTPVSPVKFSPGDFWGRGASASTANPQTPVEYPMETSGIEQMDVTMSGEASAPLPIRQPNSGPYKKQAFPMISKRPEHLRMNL
Just so you know, pIC50 here is -log10 of the concentration in molar units; reply with that number alone.

Here's what some known entries look like.
What is its pIC50 for P70S6K (T412E mutant) (Homo sapiens (Human), UniProt P23443, T412E)? Entry: Cc1ccc(-c2c(N)ncnc2N2CCC(c3nc(-c4ccc(F)c(C(F)(F)F)c4)cn3C)CC2)s1 8.15

For the record CCc1c(N)ncnc1N1CCC(c2nc(-c3ccnc(C)c3)cn2CCN2CCC2)CC1 , what value of pIC50 is listed for P70S6K (T412E mutant) (Homo sapiens (Human), UniProt P23443, T412E)? 8.06

Given the entry CCc1c(N)ncnc1N1CCC(c2nc(-c3ccc(F)c(OC)c3)cn2CCN2CCC2)CC1 , what pIC50 was observed with P70S6K (T412E mutant) (Homo sapiens (Human), UniProt P23443, T412E)? 8.66

Next:
pIC50 of CCOc1c(N)ncnc1N1CCC(c2nc(-c3ccnc(C(F)(F)F)c3)cn2CCN2CCC2)CC1 on P70S6K (T412E mutant) (Homo sapiens (Human), UniProt P23443, T412E)? 8.62

Give P70S6K (T412E mutant) (Homo sapiens (Human), UniProt P23443, T412E) pIC50 for Nc1ncnc(N2CCC(c3nc(-c4ccc(F)c(C(F)(F)F)c4)cn3C[C@@H]3CCN3)CC2)c1Cl 8.32

Request - read-out pIC50 | tested on P70S6K (T412E mutant) (Homo sapiens (Human), UniProt P23443, T412E) | compound CCc1c(N)ncnc1N1CCC(c2nc(-c3ccc(F)cc3)cn2CCN2CCCC2)CC1 8.64

Notebook: pull reported pIC50 for P70S6K (T412E mutant) (Homo sapiens (Human), UniProt P23443, T412E), entry CCc1c(N)ncnc1N1CCC(c2nc(-c3ccc(F)c(C(F)(F)F)c3)cn2CCN2CCC(F)(F)C2)CC1 8.55

Given the entry Nc1ncnc(N2CCC(c3nc(-c4ccc(F)c(C(F)(F)F)c4)cn3CCN3CCC3)CC2)c1[N+](=O)[O-] , what pIC50 was observed with P70S6K (T412E mutant) (Homo sapiens (Human), UniProt P23443, T412E)? 8.85

Query for P70S6K (T412E mutant) (Homo sapiens (Human), UniProt P23443, T412E): what pIC50 does the record show for Nc1ncnc(N2CCC(c3nc(-c4ccc(F)c(C(F)(F)F)c4)cn3CCN3CCCC3)CC2)c1F ? 7.64

Reported pIC50 for P70S6K (T412E mutant) (Homo sapiens (Human), UniProt P23443, T412E), given Nc1ncnc(N2CCC(c3nc(-c4cccc(Cl)c4)cn3CCN3CCCC3)CC2)c1C1CCC1 ? 8.39

# get_value(readout= pIC50, system= P70S6K (T412E mutant) (Homo sapiens (Human), UniProt P23443, T412E)) for CCO/C=C/c1c(N)ncnc1N1CCC(c2nc(-c3ccc(F)c(C(F)(F)F)c3)cn2CCN(C)C)CC1 8.72

So what pIC50 did CN(C)CCN(C)CCn1cc(-c2ccc(F)c(C(F)(F)F)c2)nc1C1CCN(c2ncnc(N)c2C(N)=O)CC1 get with P70S6K (T412E mutant) (Homo sapiens (Human), UniProt P23443, T412E)? 8.20

Provide the documented pIC50 with P70S6K (T412E mutant) (Homo sapiens (Human), UniProt P23443, T412E) as the system for CCc1c(N)ncnc1N1CCC(c2nc(-c3ccc(F)c(C)c3)cn2CCN2CCCC2)CC1 8.41

Recorded pIC50 for NC(=O)c1c(N)ncnc1N1CCC(c2nc(-c3cccc(C(F)(F)F)c3)cn2CCN2CCCC2)CC1 with P70S6K (T412E mutant) (Homo sapiens (Human), UniProt P23443, T412E), please? 7.89

Enter reported pIC50 observed with P70S6K (T412E mutant) (Homo sapiens (Human), UniProt P23443, T412E) for CCc1c(N)ncnc1N1CCC(c2nc(-c3ccc(F)c(C)c3)cn2CCN(CC)CC)CC1 8.80

----------
Measured pIC50, listed per entry for reference.
biological target: P70S6K (T412E mutant) (Homo sapiens (Human), UniProt P23443, T412E); assay: P70S6K enzyme assay; assay type: biochemical; conditions: read-out: IC50 p70S6K
Scale note: pIC50 = -log10(concentration in M).

Example entries and their recorded answers appear below.
What value of pIC50 has been recorded for this entry: CCN(CC)CCn1cc(-c2ccc(F)c(C)c2)nc1C1CCN(c2ncnc(N)c2C#N)CC1 8.57

Given Cc1cc(-c2cn(CCO)c(C3CCN(c4ncnc(N)c4C#N)CC3)n2)ccc1F , state its recorded pIC50. 8.74

Suppose we examine the compound Nc1ncnc(N2CCC(c3nc(-c4ccc(F)c(C(F)(F)F)c4)cn3CCN3CCC3)CC2)c1Br ; what pIC50 value has been reported? 8.82

Please turn your attention to the following entry.
# input compound: CCc1c(N)ncnc1N1CCC(c2nc(-c3cccc(F)c3)cn2CCN2CCC2)CC1 ; wanted: its pIC50 8.34

----------
target: UniProt:P31749; experiment: AKT enzyme assay; type: biochemical; conditions: read-out: IC50 AKT
Sequence (P31749 whole entry): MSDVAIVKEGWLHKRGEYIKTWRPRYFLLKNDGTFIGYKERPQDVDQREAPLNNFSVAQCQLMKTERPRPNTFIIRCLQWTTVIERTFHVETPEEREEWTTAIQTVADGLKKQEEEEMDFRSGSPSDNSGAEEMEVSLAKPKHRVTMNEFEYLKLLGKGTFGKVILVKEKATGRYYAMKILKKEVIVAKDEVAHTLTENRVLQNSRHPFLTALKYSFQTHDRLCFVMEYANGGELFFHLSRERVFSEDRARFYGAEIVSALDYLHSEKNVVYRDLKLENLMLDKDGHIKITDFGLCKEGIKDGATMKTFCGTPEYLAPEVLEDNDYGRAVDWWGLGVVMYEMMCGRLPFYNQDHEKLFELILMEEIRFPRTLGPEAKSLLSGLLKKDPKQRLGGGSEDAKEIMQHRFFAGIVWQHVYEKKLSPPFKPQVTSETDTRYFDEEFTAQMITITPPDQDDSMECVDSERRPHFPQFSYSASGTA
recordedEndpoint: log10 IC50 (log10 of the value in µM)
Would you kindly interpret these values as log10 of IC50 expressed in µM?

Take a look at these entries with their results.
Give the reported log10 IC50 for Cc1cc(-c2cn(CCNC3CC3)c(C3CCN(c4ncnc(N)c4-c4cn[nH]c4)CC3)n2)ccc1F (system: UniProt:P31749). -0.82

# returns recorded log10 IC50 (system: UniProt:P31749) for C=Cc1c(N)ncnc1N1CCC(c2nc(-c3ccc(F)c(C(F)(F)F)c3)cn2CCN2CCCC2)CC1 -2.17

Param readout = log10 IC50; param system = UniProt:P31749; param query = N#Cc1c(N)ncnc1N1CCC(c2nc(-c3cc[nH]c(=O)c3)cn2CCN2CCC2)CC1 ; response: value -0.30

Next:
Quick check: log10 IC50 on UniProt:P31749, item COCCNCCn1cc(-c2ccc(F)c(C(F)(F)F)c2)nc1C1CCN(c2ncnc(N)c2C#N)CC1 ? -2.60

What measured log10 IC50 is associated with COc1ccc(-c2cn(CCN3CCC3)c(C3CCN(c4ncnc(N)c4C(N)=O)CC3)n2)cc1Cl on UniProt:P31749? 0.00

Which log10 IC50 is reported with UniProt:P31749 for this entry: CCc1c(N)ncnc1N1CCC(c2nc(-c3cccc(C(F)(F)F)c3)cn2CCN2CCC2)CC1 ? -1.74

Lab note: need log10 IC50 with UniProt:P31749 for entry CCc1c(N)ncnc1N1CCC(c2nc(-c3ccc(F)c(C)c3)cn2CC2CN(C)C2)CC1 , please look it up. -3.52

Find log10 IC50 (UniProt:P31749) for the entry Cc1cc(-c2cn(CC3CNC3)c(C3CCC(c4ncnc(N)c4C(C)C)CC3)n2)ccc1F (stereo not drawn) -1.80

Form: Entry = Nc1ncnc(N2CCC(c3nc(-c4ccc(F)c(C(F)(F)F)c4)cn3C[C@@H]3CCN3)CC2)c1Cl | System = UniProt:P31749 | log10 IC50 = ____ -1.42

What is its log10 IC50 for UniProt:P31749? Entry: CC(C)CNCCn1cc(-c2ccc(F)c(C(F)(F)F)c2)nc1C1CCN(c2ncnc(N)c2C#N)CC1 -3.15

Request body: readout log10 IC50, system UniProt:P31749, query CCc1c(N)ncnc1N1CCC(c2nc(-c3ccc(F)c(C)c3)cn2CCN2CCCC2)CC1 . Return the value. -2.18

Item: Cc1c(N)ncnc1N1CCC(c2nc(-c3ccc(F)c(C(F)(F)F)c3)cn2CCN2CCCC2)CC1 Test system: UniProt:P31749 Read-out: log10 IC50 Value: ? -2.00

Form field: log10 IC50 recorded for Nc1cc(N2CCC(c3nc(-c4ccc(F)c(C(F)(F)F)c4)cn3CCN3CCCCC3)CC2)ncn1 with UniProt:P31749 (enter value) -0.39

Write down the reported log10 IC50 of Nc1ncnc(N2CCC(c3nc(-c4ccc(C(F)(F)F)c(F)c4)cn3CCN3CCCC3)CC2)c1Br , test system: UniProt:P31749. -1.15

----------
molecular target: P70S6K (T412E mutant) (Homo sapiens (Human), UniProt P23443, T412E); assay: P70S6K enzyme assay; format: biochemical; conditions: read-out: IC50 p70S6K
The label True is reserved for IC50 strictly under 4 nM; False covers values equal to or above it.

Is IC50 of Cn1cc(-c2ccc(F)c(C(F)(F)F)c2)nc1C1CCN(c2ncnc(N)c2-c2ccncc2)CC1 strictly below 4 nM? True

Here's an entry: COc1ccc(-c2c(N)ncnc2N2CCC(c3nc(-c4cccc(C(F)(F)F)c4)c[nH]3)CC2)cc1 . Is its IC50 below 4 nM? True

Does CC(=O)Nc1c(N)ncnc1N1CCC(c2nc(-c3ccc(F)c(C(F)(F)F)c3)cn2CCN2CCC2)CC1 have IC50 strictly under 4 nM? False

Regarding COCCN(C)CCn1cc(-c2ccc(F)c(C(F)(F)F)c2)nc1C1CCN(c2ncnc(N)c2C#N)CC1 , kindly confirm whether its IC50 is beneath 4 nM. True

Field: below-cutoff. Rule: recorded IC50 strictly less than 4 nM. Subject: Nc1ncnc(N2CCC(c3nc(-c4ccc(Cl)c(F)c4)cn3CCN3CCCC3)CC2)c1C1CCC1 False

Quick check: IC50 of CN(C)CCn1cc(-c2ccc(F)c(C(F)(F)F)c2)nc1C1CCN(c2ncnc(N)c2Br)CC1 under 4 nM? True

I'd appreciate it if you could check whether Nc1ncnc(N2CCC(c3nc(-c4cccc(C(F)(F)F)c4)c[nH]3)CC2)c1Br has IC50 smaller than 4 nM. False

Does the reported IC50 of C=Cc1c(N)ncnc1N1CCC(c2nc(-c3ccc(F)cc3)cn2CCN2CCCC2)CC1 stay below 4 nM? True

Confirm or reject: IC50 of Nc1ncnc(N2CCC(c3nc(-c4ccc(C(F)(F)F)cc4)cn3CCN3CCCC3)CC2)c1C1CCC1 lies strictly below 4 nM False

Please let me know if CCc1c(N)ncnc1N1CCC(c2nc(-c3cccc(Cl)c3)cn2CCN2CCC2)CC1 shows IC50 below 4 nM. True

Say whether its IC50 is strictly beneath 4 nM. Entry: N#Cc1c(N)ncnc1N1CCC(c2nc(-c3cccc(C(F)(F)F)c3)cn2CCN2CCCC2)CC1 True

Bench note: check whether Nc1ncnc(N2CCC(c3nc(-c4ccc(F)c(C(F)(F)F)c4)cn3CCN3CCCC3)CC2)c1-c1ccc(F)c(F)c1 shows IC50 below 4 nM False
